test: Pharmacokinetics of sulfatinib in rats, DDI study with myricetin (UPLC-MS/MS of plasma); assay type: in vivo, Sprague-Dawley (SD) rats; conditions: male, Sprague-Dawley, rat, in vivo, po, 30 mg/kg, Tmax

{"columns": ["smiles_notation", "units", "Tmax"],
 "data": [
  ["Cc1cc2cc(Oc3ccnc(Nc4cccc(CS(=O)(=O)NCCN(C)C)c4)n3)ccc2[nH]1", "h", 3.4]
]}

----------
experiment: Pharmacokinetics of sulfatinib in rats, DDI study with myricetin (UPLC-MS/MS of plasma); type: in vivo, Sprague-Dawley (SD) rats; details: male, Sprague-Dawley, rat, in vivo, po, 30 mg/kg, Cmax
readout: Cmax

{"columns": ["smiles_notation", "readout", "result"],
 "data": [
  ["Cc1cc2cc(Oc3ccnc(Nc4cccc(CS(=O)(=O)NCCN(C)C)c4)n3)ccc2[nH]1", "Cmax", "1040 ng/mL"]
]}
